Assay: BSK_BT_PBMCCytotoxicity: PBMC Cytotoxicity Assessment in the BioMAP Diversity Plus: BT Assay (AID 2284225);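 further: PBMC viability measured by Alamar Blue dye reduction fluorescence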
Conditions: primary human B cells with PBMC
Calls of active or inactive are those of the source. How the source made its calls: active means hit-call score of the fitted dose curve at least 0.9, where 1 is the maximum; inactive means score below 0.9.
The reply should be one of these categories: yes (1) = active, no (0) = inactive

Example results:
>>> qualitative_label("CCC(C)c1cc([N+](=O)[O-])cc([N+](=O)[O-])c1OC(=O)OC(C)C (stereo not given)")
"yes (1)"
>>> qualitative_label("CC(C)(C)CC(C)(C)c1ccc(OCCOCC[N+](C)(C)Cc2ccccc2)cc1")
"yes (1)"
>>> qualitative_label("C1=CC2C3C=CC(C3)C2C1 (stereo not given)")
"no (0)"
>>> qualitative_label("CCN(CC)C(=O)N(CC)CC")
"no (0)"

I'd appreciate the recorded outcome for CCCCCCCCCCCCCCCC(=O)OC/C=C(C)/C=C/C=C(C)/C=C/C1=C(C)CCCC1(C)C from this test.
no (0)

====

Assay: CEETOX_H295R_DOC: CeeTox H295R High-throughput Steroidogenesis Assay for DOC (AID 2283439)
Settings: actives raise or lower the signal
Activity calls are given as the source filed them. Rule for the calls: active = hit-call score of the fitted dose curve at least 0.9, where 1 is the maximum; inactive = score below 0.9.
Could you please pick one outcome from this set? True (active), False (inactive)

See these solved cases before continuing.
>>> qualitative_label("COCCc1ccc(OCC(O)CNC(C)C)cc1 (stereo not drawn)")
"False"
>>> qualitative_label("CCC(C)c1cc([N+](=O)[O-])cc([N+](=O)[O-])c1OC(=O)OC(C)C (stereo not drawn)")
"False"
>>> qualitative_label("CC1(C)C(=O)N(Cl)C(=O)N1Br")
"False"
>>> qualitative_label("CC=Cc1ccc(OCC)c(O)c1")
"False"

Lab note: next compound to report on.
Given C=C1CC[C@H](O)C/C1=C/C=C1\CCC[C@]2(C)[C@@H]([C@H](C)/C=C/[C@H](C)C(C)C)CC[C@@H]12 , state the outcome it received in this test.
True

====

Target: human Peroxisome Proliferator-activated Receptor alpha (PPARa), PPARA (gene 5465)
Assay: ATG_PPARa_TRANS: Attagene TRANS-FACTORIAL HepG2 Assay for human Peroxisome Proliferator-activated Receptor alpha (PPARa) (AID 2283001)
Results filed as inconclusive are left out. Activity calls are given as the source filed them. The calls were made as follows: active = hit-call score of the fitted dose curve at least 0.9, where 1 is the maximum; inconclusive = response in the unintended direction; inactive = score below 0.9.
Hi! Could you answer with just one of these? active, inactive

Worked set:
>>> qualitative_label("CCc1ccc(O)cc1")
"inactive"
>>> qualitative_label("CC1(C)COCN1")
"inactive"
>>> qualitative_label("CCCC(C)C(O)CC (centres undefined)")
"inactive"

Check the results log: what was the call for CCN(CCC#N)c1ccc(N=Nc2ccc([N+](=O)[O-])cc2)cc1 ?
inactive

Check the results log: what was the call for Cc1ccc(S(=O)(=O)Oc2ccc(N=Nc3ccc(-c4ccc(N=Nc5c(O)ccc6cc(S(=O)(=O)O)cc(S(=O)(=O)O)c56)c(C)c4)cc3C)cc2)cc1 ?
inactive

Answer briefly: the call reported for NCCNc1cccc2ccccc12 in this assay.
active

Tell me the assay call for C/C=C(\C)C(=O)OCCc1ccccc1 please.
inactive

Identify the outcome logged in this assay for the molecule shown: CC(Oc1cc(Cl)ccc1Cl)C(=O)O (centres undefined)
inactive

How was CCCCCCCCCCCCN1CCCCCC1=O classified in this test?
inactive

// return assay outcome for C=C(C#N)C(=O)OCC
inactive

// outcome(item) with item = BrCc1cccc(Oc2ccccc2)c1
inactive

What outcome does the record of this test show for IC(I)I ?
inactive

Could you please tell me the result logged for CCCCCCCCCC(C)C=O (centres undefined) in this assay?
active

What was the test verdict on C=CC(=C)CCCC(C)(C)OC(C)=O ?
inactive

====

Target: Estrogen receptor (Homo sapiens)
Test: OT_ER_ERaERa_1440: Odyssey Thera (OT) 24-hour HEK293T Protein-Complementation Assay for Estrogen Receptor-alpha/-alpha Homodimer (AID 2283349);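 further: hits raise fluorescence above DMSO for agonists and antagonists alike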
Description: OT_ER_ERaERa_1440 is a cell-based assay that uses HEK293T, a human kidney cell line, with measurements taken at 24 hours after chemical dosing in a 384-well plate.OT_ER_ERaERa_1440 is one of one assay component(s) measured or calculated from the OT_ER_ERaERa_1440 assay. […] This assay endpoint, OT_ER_ERaERa_1440, was analyzed in the positive analysis fitting direction relative to DMSO as the negative control and baseline of activity. […]
The source made the active and inactive calls. How the source made its calls: active means hit-call score of the fitted dose curve at least 0.9, where 1 is the maximum; inconclusive means response in the unintended direction; inactive means score below 0.9.
property-measured: outcome

>>> recorded_value("CC(C)CCCCCCc1ccc(OCCOCCO)cc1")
"inactive"
>>> recorded_value("OCC(O)c1ccccc1 (stereo not given)")
"inactive"
>>> recorded_value("CC(C)NCC(O)COc1ccc(CC(N)=O)cc1 (stereo not given)")
"inactive"
>>> recorded_value("CCCCCCCCCCCC(=O)OCC(O)CO (stereo not given)")
"inactive"

// below: outcome requested for another molecule
For CS(=O)(=O)OCCCCOS(C)(=O)=O , write its outcome.
inactive

====

Read-out: Monocyte Chemoattractant Protein-1 (MCP1), CCL2 (gene 6347)
Assay: BSK_SAg_MCP1: BioMAP Diversity Plus: SAg Assay for Monocyte Chemoattractant Protein-1 (MCP1) Biomarker Activity (AID 2283090)
Conditions: primary human HUVEC with PBMC; actives raise or lower the signal
Active and inactive are the calls of the source. Rule for the calls: active = hit-call score of the fitted dose curve at least 0.9, where 1 is the maximum; inactive = score below 0.9.
Allowed answers: TRUE (active), FALSE (inactive)

>>> qualitative_label("CCCCCCC(CO)CCCC (centres undefined)")
"FALSE"
>>> qualitative_label("CN(C)C(=S)SC(=S)N(C)C")
"FALSE"

Given CC(C=O)Cc1ccc(C(C)(C)C)cc1 (centres undefined) , state the outcome it received in this test.
FALSE

For C[C@@H]1CCN(C(=O)[C@H](CCCN=C(N)N)NS(=O)(=O)c2cccc3c2NC[C@H](C)C3)[C@@H](C(=O)O)C1 , what call appears in the results of this test?
FALSE

# lookup: test call for CCCCOC(=O)CCCCCCCC(=O)OCCCC
FALSE

State the result this test recorded for O=C1OC[C@H](Cc2cccc(O)c2)[C@H]1Cc1cccc(O)c1 .
FALSE

How did this test come out for CCCCN(CCCC)C(=O)N(CCCC)CCCC ?
TRUE

# lookup: test call for CCCCCC(C=O)=Cc1ccccc1
FALSE

Hey, what did the test say about CS(=O)(=O)c1ccc(C2=C(c3ccccc3)C(=O)OC2)cc1 ?
FALSE

====

Target: Retinoic acid receptor RXR-alpha (Homo sapiens) (UniProt P19793)
Sequence (P19793 whole entry, looked up): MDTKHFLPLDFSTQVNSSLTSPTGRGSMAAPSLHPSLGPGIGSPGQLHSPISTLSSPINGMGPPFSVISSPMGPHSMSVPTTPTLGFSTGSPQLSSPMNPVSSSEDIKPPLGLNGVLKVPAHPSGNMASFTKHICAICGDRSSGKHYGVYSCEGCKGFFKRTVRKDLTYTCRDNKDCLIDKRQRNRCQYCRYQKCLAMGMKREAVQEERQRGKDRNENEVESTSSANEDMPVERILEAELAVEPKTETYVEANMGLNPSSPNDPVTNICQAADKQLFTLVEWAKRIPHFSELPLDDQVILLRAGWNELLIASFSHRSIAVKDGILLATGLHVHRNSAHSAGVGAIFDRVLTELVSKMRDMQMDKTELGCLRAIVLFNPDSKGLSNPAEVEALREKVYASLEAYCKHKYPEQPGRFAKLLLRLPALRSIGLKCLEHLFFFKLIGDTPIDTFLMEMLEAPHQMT
Assay: ATG_RXRa_TRANS: Attagene TRANS-FACTORIAL HepG2 Assay for human Retinoid X Receptor alpha (RXRa) (AID 2283012)
Inconclusive results are not listed. The source made the active and inactive calls. Rule for the calls: active = hit-call score of the fitted dose curve at least 0.9, where 1 is the maximum; inconclusive = response in the unintended direction; inactive = score below 0.9.
property-measured: outcome

Here is how some molecules turned out for outcome.
>>> recorded_value("COCCOCCOCCO")
"inactive"
>>> recorded_value("Oc1c(Cl)cc(Cl)c(Cl)c1Cc1c(O)c(Cl)cc(Cl)c1Cl")
"inactive"
>>> recorded_value("CC(C)C[C@H](NC(=O)OCC1c2ccccc2-c2ccccc21)C(=O)O")
"inactive"
>>> recorded_value("c1ccc2[nH]cnc2c1")
"inactive"
>>> recorded_value("N[C@@H](Cc1cc(I)c(Oc2cc(I)c(O)c(I)c2)c(I)c1)C(=O)O")
"inactive"

Retrieve outcome measured for NCCNc1cccc2ccccc12 and print it.
inactive

Return reported outcome. Input molecule: CCCCCCCCCC(C)C=O (configuration not stated)
inactive

Consider the molecule c1ccc2cc(Nc3ccc(Nc4ccc5ccccc5c4)cc3)ccc2c1 . State its measured outcome.
inactive

Check the records and state outcome for O=C(Nc1ccc2c(O)c(N=Nc3ccc(N=Nc4ccc(S(=O)(=O)O)cc4)cc3)c(S(=O)(=O)O)cc2c1)c1ccccc1
inactive

Answer with reported outcome of CC(C)CCCCCCCCCCCCCCC(=O)O
inactive

Please indicate outcome recorded for Cc1ccc(N)c(S(=O)(=O)O)c1
inactive

Note outcome for the molecule shown: Clc1cc(Cl)c(-c2c(Cl)c(Cl)cc(Cl)c2Cl)cc1Cl
inactive

====

Biological target: Cellular tumor antigen p53 (Homo sapiens) (UniProt P04637)
Sequence (P04637 whole entry, looked up): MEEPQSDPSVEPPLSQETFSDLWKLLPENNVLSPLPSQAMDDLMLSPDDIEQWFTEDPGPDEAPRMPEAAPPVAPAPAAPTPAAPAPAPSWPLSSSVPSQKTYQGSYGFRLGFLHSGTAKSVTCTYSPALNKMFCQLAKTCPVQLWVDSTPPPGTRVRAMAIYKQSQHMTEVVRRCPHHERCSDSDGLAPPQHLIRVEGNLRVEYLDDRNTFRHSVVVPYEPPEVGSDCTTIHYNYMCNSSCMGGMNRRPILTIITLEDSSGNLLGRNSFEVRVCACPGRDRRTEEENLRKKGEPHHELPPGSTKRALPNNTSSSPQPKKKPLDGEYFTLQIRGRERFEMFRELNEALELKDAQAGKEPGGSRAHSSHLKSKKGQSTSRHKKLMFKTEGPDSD
Assay: TOX21_p53_BLA_p4_ratio: Tox21 HCT-116 p53 Agonism Beta-lactamase Assay, Ratio, Phase 4 (AID 2283601)
Results filed as inconclusive are left out. Active and inactive are the calls of the source. Rule for the calls: active = hit-call score of the fitted dose curve at least 0.9, where 1 is the maximum; inconclusive = response in the unintended direction; inactive = score below 0.9.
Answer with one of the outcomes given here: True for active, False for inactive

>>> qualitative_label("O=c1[nH]c(=O)c2cn[nH]c2[nH]1")
"False"
>>> qualitative_label("IC(I)I")
"False"
>>> qualitative_label("CCO/C=C1\\N=C(c2ccccc2)OC1=O")
"False"

Lab log entry: CCCCCCCCCCCCCCN(CCO)CCO — outcome as called in the assay?
False

Look up the recorded call for c1ccc2[nH]cnc2c1 in this test.
False

How did this test come out for C[N+](C)(C)CCCCCC[N+](C)(C)C ?
False

# lookup: test call for CC(C)(C)c1ccc(C(=O)O)cc1
False

Which outcome was entered for the molecule COS(=O)(=O)O in this test?
False

Write down the call the test reported for this molecule. Item: COc1ccc(N=Nc2cc(C)c(N=Nc3ccc(S(=O)(=O)O)cc3)cc2OC)cc1
False
